Each recorded value in this set is attributed to PubChem BioAssay (NCATS).

Test: Cell Viability - SK-N-SH (AID 435);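 further: compound exposure lasted 40 h at 37 °C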
Conditions: SK-N-SH neuroblastoma cell viability qHTS
Inconclusive results are not listed. The source made the active and inactive calls. The call rests on the fitted dose curve.
Give your call using only these classes: true (1) for active, false (0) for inactive

compound: CC(C)(c1ccc(O)cc1)c1ccc(O)cc1
label class: false (0)
//
compound: O=C(Oc1ccccc1)c1ccccc1O
label class: false (0)
//
compound: Cc1ccc(O)cc1
label class: false (0)

Each compound tested received a call. Report the one for CC(C)(C)c1ccc(O)c(O)c1 .
true (1)

Each compound tested received a call. Report the one for Nc1cccc2c(N)cccc12 .
false (0)

Each compound tested received a call. Report the one for Nc1c2ccccc2nc2ccccc12 .
true (1)

====

Tested on: CRL-7250
Test: Cytotoxic Profiling of Annotated Libraries Using Quantitative High-Throughput Screening (AID 1296008); further: on the % scale 0 is the no-effect control and ±100 the full control effect; nearly all actives have a fitted effect of over 60% in size
Details: Five cell lines viability, CellTiter-Glo ATP luminescence, 48-72 h; stronger effect = lower value
Records with an inconclusive call do not appear.
Parameter: max response. Scope: all listed entries.
Number only, in %; omit the unit.

For orientation, consider the following solved cases.
compound: CCOc1ccccc1OCC1CNCCO1 (stereo not given)
output unit: %
reading: -6.41

compound: CC1(C)O[C@@H]2C[C@H]3[C@@H]4CCC5=CC(=O)C=C[C@]5(C)[C@@]4(F)[C@@H](O)C[C@]3(C)[C@]2(C(=O)CO)O1
output unit: %
reading: -0.473

compound: O=C1CC2(CCCC2)CC(=O)N1
output unit: %
reading: -7.34

Give a short answer stating reported max response for O=C(Oc1ccccc1)c1cccc(C(=O)Oc2ccccc2)c1 .
-12.1

Give a short answer stating reported max response for C=CC[N+]1([C@H]2C[C@H]3[C@@H]4CC[C@H]5C[C@H](OC(C)=O)[C@@H](N6CCCCC6)C[C@]5(C)[C@H]4CC[C@]3(C)[C@H]2OC(=O)CC)CCCCC1 .
-0.558

Give a short answer stating reported max response for COc1ccccc1N1CCN(CCN2C(=O)CC3(CCCC3)CC2=O)CC1 .
-8.79

Give a short answer stating reported max response for O=c1[nH]sc2cc(Cl)ccc12 .
-108

Give a short answer stating reported max response for COc1cc(NS(=O)(=O)c2ccc(N)cc2)nc(C)n1 .
-6.73

Give a short answer stating reported max response for Nc1ccc(C(=O)N2CC3CC(CN(Cc4ccccc4)C3)C2)cc1 .
-9.41

Give a short answer stating reported max response for O=C(OCCN1CCOCC1)c1cccnc1Nc1cccc(C(F)(F)F)c1 .
-4.59

====

Biological target: Calcium and integrin-binding protein 1 (Homo sapiens) (UniProt Q99828)
Sequence (Q99828 whole entry, looked up): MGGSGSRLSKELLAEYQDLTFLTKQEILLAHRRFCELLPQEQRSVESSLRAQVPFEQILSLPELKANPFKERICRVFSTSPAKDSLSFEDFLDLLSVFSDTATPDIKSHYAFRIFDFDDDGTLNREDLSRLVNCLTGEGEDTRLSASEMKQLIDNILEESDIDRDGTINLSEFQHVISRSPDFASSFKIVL
Assay: Primary qHTS for Identification of Calcium Integrin Binding Protein 1 (CIB1) Competitor (AID 1508620);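 further: GST tagged CIB1 binding a fluorescein labelled alphaIIb integrin peptide tracer; top concentration of the series differs between compounds; on the % scale 0 is the no-effect control and ±100 the full control effect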
Conditions: CIB1-GST / FITC-alphaIIb peptide fluorescence polarization; series mostly up to 114 µM
Inconclusive results are not listed. Active and inactive are the calls of the source. Calls follow the shape of the dose curve; as a rule, active = well fitted inhibition curve with a large enough effect; inconclusive = small, poorly fitted or top-dose-only effect; inactive = flat fitted curve, though single readings scatter.
Give your call using only these classes: Yes (active), No (inactive)

compound: O=C(O)c1ccccc1Nc1cc(Cl)ccc1C(=O)O
label class: No
--
compound: CC1(C)O[C@@H]2C[C@H]3[C@@H]4C[C@H](F)C5=CC(=O)C=C[C@]5(C)[C@@]4(F)[C@@H](O)C[C@]3(C)[C@]2(C(=O)CO)O1
label class: No
--
compound: O=C(OCC(O)CO)c1ccccc1Nc1ccnc2c(C(F)(F)F)cccc12 (stereo not given)
label class: No
--
compound: COc1ccc(/C(C)=C/C(=O)O)c(OC)c1
label class: No
--
compound: CC[C@@H]([C@H](C)O)n1ncn(-c2ccc(N3CCN(c4ccc(OC[C@@H]5CO[C@@](Cn6cncn6)(c6ccc(F)cc6F)C5)cc4)CC3)cc2)c1=O
label class: No
--
compound: O=C(C1CCCCC1)N1CC(=O)N2CCCc3ccccc3C2C1 (stereo not given)
label class: No
--
compound: COc1cc(OC)nc(O[C@H](C(=O)O)C(OC)(c2ccccc2)c2ccccc2)n1
label class: No
--
compound: COc1cc(C=O)ccc1O
label class: No

Each compound tested received a call. Report the one for CCC(C(=O)NC(=O)NC(C)=O)c1ccccc1 (stereo not given) .
No

Each compound tested received a call. Report the one for O=C(NN1CCCC1)NS(=O)(=O)c1ccc(Cl)cc1 .
No

Each compound tested received a call. Report the one for C/C(=N/NC(=O)c1ccncc1)C(=O)O .
No

Each compound tested received a call. Report the one for CCOC(=O)c1ccc(O)c(O)c1 .
No

Each compound tested received a call. Report the one for CC(=O)c1cc2ccccc2s1 .
No

Each compound tested received a call. Report the one for OCc1cccnc1 .
No

Each compound tested received a call. Report the one for O=C(c1ccco1)N1CCNCC1 .
No

Each compound tested received a call. Report the one for CCC(C(=O)OCCN1CCOC(c2ccccc2)C1C)c1ccccc1 (stereo not given) .
No

====

Tested on: NIH3T3
Experiment: Cytotoxic Profiling of Annotated Libraries Using Quantitative High-Throughput Screening (AID 1296008); further: on the % scale 0 is the no-effect control and ±100 the full control effect; nearly all actives have a fitted effect of over 60% in size
Details: Five cell lines viability, CellTiter-Glo ATP luminescence, 48-72 h; stronger effect = lower value
Protocol: Cell-based phenotypic screening is a commonly used approach to discover biological pathways, novel drug targets, chemical probes and high-quality hit-to-lead molecules. […] A pintool (Kalypsys) was used to transfer 23 nL of compound solution to the 1536-well assay plates. […] Plates were left at room temperature for 10 min before imaging the ATP-coupled luminescence using a ViewLux microplate imager (PerkinElmer, Waltham, MA).
Records with an inconclusive call do not appear.
measured attribute: max response (%)
Number only, in %; omit the unit.

molecule: CC(NC(CCc1ccccc1)C(=O)O)C(=O)N1C(=O)N(C)CC1C(=O)O (stereo unspecified)
max response [%]: -5.8

molecule: CCC(C(=O)OCCN1CCOC(c2ccccc2)C1C)c1ccccc1 (stereo unspecified)
max response [%]: -22.2

molecule: CCCC(=O)O[C@]1(C(=O)CC)CC[C@H]2[C@@H]3CCC4=CC(=O)CC[C@]4(C)[C@H]3[C@@H](O)C[C@@]21C
max response [%]: -5.79

molecule: Cc1nc(C2CCCCC2)c(-c2ccc(S(N)(=O)=O)c(F)c2)o1
max response [%]: -12.8

// output max response; input O=C(OCC(O)CO)c1ccccc1Nc1ccnc2c(C(F)(F)F)cccc12 (stereo unspecified) ; system NIH3T3
-7.27

// output max response; input C=CC[N+]1([C@H]2C[C@H]3[C@@H]4CC[C@H]5C[C@H](OC(C)=O)[C@@H](N6CCCCC6)C[C@]5(C)[C@H]4CC[C@]3(C)[C@H]2OC(=O)CC)CCCCC1 ; system NIH3T3
-0.979

// output max response; input COc1ccc(OC(=O)N(CC(=O)O)Cc2ccc(OCCc3nc(-c4ccccc4)oc3C)cc2)cc1 ; system NIH3T3
0.554

====

Experiment: qHTS of pediatric cancer cell lines to identify multiple opportunities for drug repurposing: Primary screen for Saos-2 cells (AID 1347097); further: nearly all actives have a fitted effect of over 40% in size
Settings: Saos-2 viability, CellTiter-Glo ATP luminescence, 48 h; series mostly up to 46 µM
Inconclusive results are not listed. The source made the active and inactive calls. The call rests on the fitted dose curve; in most records, active means well fitted cell-killing curve with a large enough effect; inconclusive means small, poorly fitted or top-dose-only effect; inactive means no such curve, though single readings can be large or run the other way.
Give your call using only these classes: T for active, F for inactive

Here's what some known entries look like.
compound: CNC(=O)c1c(I)c(NC(C)=O)c(I)c(C(=O)O)c1I
label class: F
//
compound: O=C1Cc2cc(Cl)ccc2N1
label class: F
//
compound: COC(=O)[C@H]1[C@H]2C[C@@H]3c4[nH]c5cc(OC)ccc5c4CCN3C[C@H]2C[C@@H](OC(=O)/C=C/c2ccc(O)c(OC)c2)[C@@H]1OC
label class: T
//
compound: Cc1sccc1Br
label class: F

Each compound tested received a call. Report the one for CNC[C@H](O)[C@@H](O)[C@H](O)[C@H](O)CO .
F

Each compound tested received a call. Report the one for Cc1ncc(CO)c(CO)c1O .
F

Each compound tested received a call. Report the one for CCCC(=O)OCOC(=O)C1=C(C)NC(C)=C(C(=O)OC)C1c1cccc(Cl)c1Cl (stereo not given) .
F

====

System: CP268
Test: qHTS profiling for inhibitors of Plasmodium falciparum proliferation (AID 504749); further: nearly all actives have a fitted effect of over 60% in size
Details: P. falciparum in erythrocytes, SYBR Green DNA, 72 h; series mostly up to 28.7 µM
Method: NIH National Institute of Allergy and Infectious Diseases [NIAID] NIH Chemical Genomics Center [NCGC] […] Because mature erythrocytes lack DNA, only Plasmodium-derived DNA is detected. NCGC Assay Protocol Summary: The SYBR Green viability assay was adapted from a method described previously (Plouffe et al., 2008). […] The following morning, fluorescence intensity at 485(14) nm excitation and 535(25) nm emission wavelengths was measured on an EnVision (Perkin Elmer) plate reader. […]
Inconclusive results are not listed. Activity calls are given as the source filed them. Calls follow the shape of the dose curve; as a rule, active = well fitted inhibition curve with a large enough effect; inconclusive = small, poorly fitted or top-dose-only effect; inactive = flat fitted curve, though single readings scatter.
Give your call using only these classes: 1 = active, -1 = inactive

compound structure string: Nc1c2ccccc2nc2ccccc12
system name: CP268
label class: 1

Each compound tested received a call. Report the one for CCCCCCCCCCCCCC[N+](C)(C)C .
1

Each compound tested received a call. Report the one for CCCCCCCCCCCCCCCC[n+]1ccccc1 .
1

Each compound tested received a call. Report the one for O=S(=O)(O)c1ccc2nc(-c3ccccc3)[nH]c2c1 .
-1
